Biological target: CDK2/CycE (Homo sapiens, UniProt P24941)
Construct: GST
Experiment: CDK2/CycE kinase assay (TR-FRET)
Details: avg, read-out: CDK2 avg (IC50 [mol/l])
Give measured IC50 for each item. Keep answers brief.

Query string: IC50 lookup needed for Cc1nsc(Nc2cnc(C(F)(F)F)cn2)c1C(=O)Nc1ccc(OC[C@H]2CCN(CC(F)(F)F)C2)nc1 (racemic) [Example 133] , thanks.
Result string: > 20 µM

Query string: IC50 lookup needed for `Cc1nsc(Nc2cnc(C(F)(F)F)cn2)c1C(=O)Nc1ccc(O[C@@H]2CN(CCC(F)(F)F)C[C@@H]2F)nc1` , thanks.
Result string: > 20 µM

Query string: IC50 lookup needed for `Cc1nsc(Nc2cnc(C(F)(F)F)cn2)c1C(=O)Nc1ccc(F)c(OC[C@H]2CCN(CC(F)(F)F)C2)c1` , thanks.
Result string: > 20 µM

Query string: IC50 lookup needed for `Cc1nsc(Nc2cnc(C(F)(F)F)cn2)c1C(=O)Nc1ccc(O[C@@H]2CCN(CC(F)(F)F)C[C@H]2F)nc1` , thanks.
Result string: > 20 µM

Query string: IC50 lookup needed for `Cc1nsc(Nc2cncc(C(F)(F)F)n2)c1C(=O)Nc1ccc(F)c(OC2CCN(CC(F)F)CC2)c1` , thanks.
Result string: > 20 µM

Query string: IC50 lookup needed for `Cc1nsc(Nc2cnc3ccccc3n2)c1C(=O)Nc1ccc(OC2CCN(CC(F)(F)F)CC2)nc1` , thanks.
Result string: ≥ 20 µM

Query string: IC50 lookup needed for Cc1nsc(Nc2cnc(C(F)(F)F)cn2)c1C(=O)Nc1ccc(OCC2CCCN(CCC(F)(F)F)C2)nc1 (stereo not drawn) , thanks.
Result string: ≥ 20 µM

Query string: IC50 lookup needed for CCCCN1CCC(COc2ccc(NC(=O)c3c(C)nsc3Nc3cnc(C(F)(F)F)cn3)cn2)C(F)(F)C1 (stereo not drawn) , thanks.
Result string: > 20 µM

Query string: IC50 lookup needed for `CNC(=O)c1ccc(NC(=O)c2c(C)nsc2Nc2ccc(C#N)cn2)cc1F` , thanks.
Result string: > 20 µM

Query string: IC50 lookup needed for `Cc1nsc(Nc2cc(C#N)ccn2)c1C(=O)Nc1ccc(C(=O)OC(C)(C)C)cc1` , thanks.
Result string: > 20 µM

Query string: IC50 lookup needed for `CCNC(=O)c1cccc(NC(=O)c2c(C)nsc2Nc2cnc3ccccc3n2)c1` , thanks.
Result string: > 20 µM

Query string: IC50 lookup needed for `Cc1nsc(Nc2cncc(C(F)(F)F)n2)c1C(=O)Nc1ccc(OCCNC(=O)OC(C)(C)C)c(F)c1` , thanks.
Result string: > 20 µM

Query string: IC50 lookup needed for `Cc1nsc(Nc2cnc(C(F)(F)F)cn2)c1C(=O)Nc1ccc(O[C@@H]2CCN(CC(F)(F)F)C2)nc1` , thanks.
Result string: > 20 µM

Query string: IC50 lookup needed for Cc1nsc(Nc2ccc(C#N)cn2)c1C(=O)Nc1ccc(OC2CCCNC2)nc1 (stereo not drawn) , thanks.
Result string: ≥ 20 µM

Query string: IC50 lookup needed for Cc1nsc(Nc2cnc(C(F)(F)F)cn2)c1C(=O)Nc1ccc(OC2CCN(C(CF)CF)C2)nc1 (stereo not drawn) , thanks.
Result string: ≥ 20 µM

###

Give measured IC50 for each item. Keep answers brief.
Test system: HeLa
Test: Proliferation assay (crystal violet), HeLa
Type: cell-based
Settings: Homo sapiens, HeLa, 96 h, HeLa cells; 4 days incubation; crystal violet staining; read-out: IC50 inhibition of proliferation, HeLa
Write down the numeric answer in µM and omit the unit.

Query string: IC50 lookup needed for COC(=O)CCc1cccc(NC(=O)c2c(C)nsc2Nc2cnc3ccccc3n2)c1 [Example 257] , thanks.
Result string: 7.7

Query string: IC50 lookup needed for Cc1nsc(Nc2cnccn2)c1C(=O)Nc1ccc(OCCCNC(=O)OC(C)(C)C)nc1 [Example 47] , thanks.
Result string: 10

Query string: IC50 lookup needed for Cc1nsc(Nc2cnc3ccccc3n2)c1C(=O)Nc1cccc(C(=O)N2CCNCC2)c1 [Example 101] , thanks.
Result string: 10

Query string: IC50 lookup needed for Cc1nsc(Nc2cnc(C(F)(F)F)cn2)c1C(=O)Nc1ccc(OC2CCN(C)CC2)nc1 [Example 220] , thanks.
Result string: 6.2
